Biological target: T1, wild-type MBP-CR2 SCR1-2 (human), P20023
T1 chain: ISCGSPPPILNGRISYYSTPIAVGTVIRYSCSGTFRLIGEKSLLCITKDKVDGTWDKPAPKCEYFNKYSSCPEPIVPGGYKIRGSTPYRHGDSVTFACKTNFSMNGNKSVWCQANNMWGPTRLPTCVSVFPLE
Test: competition ELISA: C3d on plate, MBP-CR2 SCR1-2 with increasing peptide, ⅓×PBS
The entries below come with measured IC50 values attached.
Metric Name: IC50 (µM)

1) TRSYQSSLHQPA (modifications not checked) [peptide C3dp1.2]	70
2) DPKNHVH (modifications not checked) [peptide C3dcp1.1]	95
3) APQHLSSQYSRT (modifications not checked) [peptide C3dp1]	100
4) IATANPRHHSTA (modifications not checked) [peptide C3dp2.3]	160
5) APQHLSSQ (modifications not checked) [peptide C3dp1.3]	40
6) ISTSNPRAASTA (modifications not checked) [peptide C3dp2.1]	150
7) APQALSSQYSRT (modifications not checked) [peptide C3dp1.1]	70
8) ISTSNPRHHSTA (modifications not checked) [peptide C3dp2]	450
9) APAHLSSQ (modifications not checked) [control peptide]	700
10) ISTSNPRH (modifications not checked) [peptide C3dp2.2]	190
